ASSAY: in vivo oral dosing of OPC, plasma concentration
MEASUREMENT CONTEXT: dog, beagle dogs, Fed, oral OPC 90 mgA Drug 1, read-out: AUC0-24
PARAMETER MEASURED: AUC(0-t) (µg·h/mL)
Numbers only, in µg·h/mL.

I'd like to know its AUC(0-t). The compound in question is CCOC(=O)N1c2ccc(C(F)(F)F)cc2[C@@H](N(Cc2cc(C(F)(F)F)cc(C(F)(F)F)c2)C(=O)OC)C[C@H]1CC
928

###

ASSAY: physchem
MEASUREMENT CONTEXT: organic solvent or mixture, solubility in decanol
PARAMETER MEASURED: solubility

I'd like to know its solubility. The compound in question is CCOC(=O)N1c2ccc(C(F)(F)F)cc2[C@@H](N(Cc2cc(C(F)(F)F)cc(C(F)(F)F)c2)C(=O)OC)C[C@H]1CC
> 25 mg/mL
